Target: T1, recombinant human IGF-II (Insulin-like Growth Factor II) (human, UniProt P01344 25-91, biotinylated (Biotinyl-IGF-II, GroPep) where immobilised in SPR, site not stated; not biotinylated in ITC and as SPR analyte)
T1 construct: also called IGF2; IGF-2
T1 sequence (P01344 25-91 limits assumed): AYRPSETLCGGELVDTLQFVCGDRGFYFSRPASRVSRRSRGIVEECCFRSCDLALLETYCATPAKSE
Experiment: SPR, IGF-II immobilised, kinetic fit
Give kon for every item shown.

Problem: // query kon value for entry IGF2R domain 11 S1596A (amino acids 1511-1650, C-terminal His6 tag, from Pichia pastoris) (receptor) NEHDDCQVTNPSTGHLFDLSSLSGRAGFTAAYSEKGLVYMSICGENENCPPGVGACFGQTRISVGKANKRLRYVDQVLQLVYKDGAPCPSKSGLSYKSVISFVCRPEAGPTNRPMLISLDKQTCTLFFSWHTPLACEQATHHHHHH
Solution: 441000 M⁻¹ s⁻¹

Problem: Likewise for IGF2R domain 11 T1570A (amino acids 1511-1650, C-terminal His6 tag, from Pichia pastoris) (receptor) NEHDDCQVTNPSTGHLFDLSSLSGRAGFTAAYSEKGLVYMSICGENENCPPGVGACFGQARISVGKANKRLRYVDQVLQLVYKDGSPCPSKSGLSYKSVISFVCRPEAGPTNRPMLISLDKQTCTLFFSWHTPLACEQATHHHHHH ?
Solution: 295000 M⁻¹ s⁻¹
